Target: CDK6/cyclin D3 (Homo sapiens) (UniProt P30281+Q00534)
Conditions: dose 100.0 nM, time 10.0 min
Each item that follows carries a reported inhibition.
Measured Attribute: inhibition (%)

# Smiles Notation, Value Observed
measured = [
    ("C#CCN1C(=O)/C(=C2\\Nc3ccccc3\\C2=N/OCCCC(=O)NO)c2ccccc21", 0.8),
    ("O=C(CCCCO/N=C1/C(=C2/C(=O)Nc3ccc(Br)cc32)Nc2ccccc21)NO", 8),
    ("O=C(CO/N=C1/C(=C2/C(=O)Nc3ccccc32)Nc2ccccc21)NO", 46.8),
    ("O=C(CCCCCCCO/N=C1/C(=C2/C(=O)Nc3ccccc32)Nc2ccccc21)NO", -2.7),
    ("O=C(CCCO/N=C1/C(=C2/C(=O)Nc3ccc(Br)cc32)Nc2ccccc21)NO", -0.8),
    ("O=C(CCCO/N=C1/C(=C2/C(=O)Nc3ccccc32)Nc2ccccc21)NO", 76.6),
    ("O=C(CCCCCO/N=C1/C(=C2/C(=O)Nc3ccccc32)Nc2ccccc21)NO", 28.8),
    ("Cc1ccc2c(c1)/C(=C1/Nc3ccccc3/C1=N\\OCCCCCCC(=O)NO)C(=O)N2", -2.2),
    ("O=C1Nc2ccccc2/C1=C1/Nc2ccccc2C1=O", 25.1),
    ("O=C(O)CCCO/N=C1/C(=C2/C(=O)Nc3ccccc32)Nc2ccccc21", 41.3),
    ("O=C(CCCCCCO/N=C1/C(=C2/C(=O)Nc3ccc([N+](=O)[O-])cc32)Nc2ccccc21)NO", 1),
    ("Cc1ccc2c(c1)C(=N\\OCCCCCCC(=O)NO)/C(=C1/C(=O)Nc3ccccc31)N2", 2.7),
    ("O=C(CO/N=C1/C(=C2/C(=O)Nc3ccc(Br)cc32)Nc2ccccc21)NO", 44.4),
    ("O=C(CCCCCCO/N=C1/C(=C2/C(=O)Nc3ccccc32)Nc2ccccc21)NO", 6.5),
    ("O=C(CCCCO/N=C1/C(=C2/C(=O)Nc3ccccc32)Nc2ccccc21)NO", 45.4),
    ("COc1ccc2c(c1)/C(=C1/Nc3ccccc3/C1=N\\OCCCCCCC(=O)NO)C(=O)N2", 3.5),
    ("O=C(CCCCCO/N=C1/C(=C2/C(=O)Nc3ccc(Br)cc32)Nc2ccccc21)NO", -0.7),
    ("O=C(CCCCCCC(=O)Nc1ccccc1)NO", 0.8),
    ("Cc1cccc2c1NC(=O)/C2=C1\\Nc2ccccc2\\C1=N/OCCCCCCC(=O)NO", 4.6),
    ("O=C(CCCCCCO/N=C1/C(=C2/C(=O)Nc3c2cccc3C(F)(F)F)Nc2ccccc21)NO", 4),
]
